tested on: bovine aortic endothelial cell; assay: bovine aortic endothelial cell growth assay (Baec assay); format: cell-based; conditions: Bos taurus, BAEC; read-out: IC50 (pM), Baec Assay
IC50: recorded values
measure.name: IC50 (pM)

1. COC(=O)[C@H](NC(=O)O[C@@H]1CC[C@]2(CO2)[C@@H]([C@@]2(C)O[C@@H]2CC=C(C)C)[C@@H]1OC)c1ccccc1 [Example 4] : 35
2. COC(=O)[C@H](NC(=O)O[C@@H]1CC[C@]2(CO2)[C@@H]([C@@]2(C)O[C@@H]2CC=C(C)C)[C@@H]1OC)C(C)(C)C [Example 8] : 313
3. COC(=O)[C@H](NC(=O)O[C@@H]1CC[C@]2(CO2)[C@@H]([C@@]2(C)O[C@@H]2CC=C(C)C)[C@@H]1OC)C1CCCCC1 [Example 9] : 165
4. CCC(C)C(NC(=O)O[C@@H]1CC[C@]2(CO2)[C@@H]([C@@]2(C)O[C@@H]2CC=C(C)C)[C@@H]1OC)C(=O)OC (stereo partly drawn) [Example 10] : 179
5. CO[C@@H]1[C@H](OC(=O)N[C@@H](C(N)=O)C(C)C)CC[C@]2(CO2)[C@H]1[C@@]1(C)O[C@@H]1CC=C(C)C [Example 5] : 46
6. CO[C@@H]1[C@H](OC(=O)N[C@@H](C(N)=O)C(C)C)CC[C@]2(CO2)[C@H]1[C@@]1(C)O[C@@H]1CCC(C)C [Example 6] : 220
